System: HLA-A*02
ASSAY_NAME: MHC binding assay, UV-ligand exchange with β2m ELISA, HLA-A*02 (Table 20)
Parameters: species or system human
MEASUREMENT_SETUP: binding to HLA-A*02 ranged by peptide exchange yield (UV-ligand exchange, β2m ELISA)
MEASURED_PARAMETER: Peptide exchange

>>> experimental_result("1 (LLYPEPWSV; listed as Homo sapiens) [compound 1]")
"++++ (≧75% = ++++)"
>>> experimental_result("95 (GLLGSLFFL; listed as Homo sapiens) [compound 95]")
"++++ (≧75% = ++++)"

###

System: HLA-A*02
ASSAY_NAME: MHC binding assay, UV-ligand exchange with β2m ELISA, HLA-A*02 (Table 20)
Set-up: species or system human
MEASUREMENT_SETUP: binding to HLA-A*02 ranged by peptide exchange yield (UV-ligand exchange, β2m ELISA)
MEASURED_PARAMETER: Peptide exchange

Recorded Peptide exchange, per entry:
>>> experimental_result("240 (YMGEEKLIASV; listed as Homo sapiens) [compound 240]")
"+++ (50%-75% = +++)"
>>> experimental_result("49 (ALNIATHVL; listed as Homo sapiens) [compound 49]")
"+++ (50%-75% = +++)"
>>> experimental_result("136 (FLFGGVLMTL; listed as Homo sapiens) [compound 136]")
"++ (20%-49% = ++)"
>>> experimental_result("84 (ALCPRIHEV; listed as Homo sapiens) [compound 84]")
"++++ (≧75% = ++++)"
>>> experimental_result("99 (YLLQSVNQLLL; listed as Homo sapiens) [compound 99]")
"++ (20%-49% = ++)"
>>> experimental_result("253 (ALAELIDNSL; listed as Homo sapiens) [compound 253]")
"+++ (50%-75% = +++)"
>>> experimental_result("259 (ILLPRIIEA; listed as Homo sapiens) [compound 259]")
"+++ (50%-75% = +++)"
>>> experimental_result("35 (FLLPFSTVYL; listed as Homo sapiens) [compound 35]")
"+++ (50%-75% = +++)"

Could you now consider this next substance?
Item 257 (GLYTDPCGV; listed as Homo sapiens) [compound 257] has what recorded Peptide exchange?
++++ (≧75% = ++++)
